# Test system: SW480
# ASSAY_OVERVIEW: Cytotoxicity against human SW480 cells measured after 24 to 72 hrs by MTT assay
# Format: functional, cell-based
Field 'label' (enum: T / F). Set to T when IC50 is strictly under 10 µM; else F.

COMPOUND	SYSTEM	LABEL
CC(=O)Oc1ccccc1C(=O)NCCn1[se]c2ccccc2c1=O	SW480	F
COc1ccc2cc([C@H](C)C(=O)O)ccc2c1 [NAPROXEN]	SW480	F
CC(C)Cc1ccc(C(C)C(=O)NCc2ccc(-n3[se]c4ccccc4c3=O)cc2)cc1 (stereo not given)	SW480	F
CC(C(=O)NCCn1[se]c2ccccc2c1=O)c1cccc(C(=O)c2ccccc2)c1 (stereo not given)	SW480	F
COc1ccc2cc(C(C)C(=O)NCc3ccc(-n4[se]c5ccccc5c4=O)cc3)ccc2c1 (stereo not given)	SW480	T
CC(C(=O)NCCn1[se]c2ccccc2c1=O)c1ccc(-c2ccccc2)c(F)c1 (stereo not given)	SW480	F

Problem: Could you please tell me whether IC50 recorded for C=C(C(=O)NCCn1[se]c2ccccc2c1=O)c1ccc(CC(C)C)cc1 is less than 10 µM?
Result: F

Problem: Quick check: IC50 of CC(=O)Oc1ccccc1C(=O)O [ASPIRIN] under 10 µM?
Result: F

Problem: Does the reported IC50 of the following compound sit strictly below 10 µM? COc1ccc2c(c1)c(CC(=O)NCc1ccc(-n3[se]c4ccccc4c3=O)cc1)c(C)n2C(=O)c1ccc(Cl)cc1
Result: T

Problem: In plain terms, does COc1cccc2c1C(=O)c1c(O)c3c(c(O)c1C2=O)C[C@@](O)(C(=O)CO)C[C@@H]3O[C@H]1C[C@H](N)[C@H](O)[C@H](C)O1 [DOXORUBICIN] come in under 10 µM for IC50?
Result: F

====

# Test system: HeLa
# ASSAY_OVERVIEW: Cytotoxicity against human HeLa cells measured after 24 to 72 hrs by MTT assay
# Format: functional, cell-based
OBSERVED_PROPERTY: IC50 (µM)
Your answer is read as µM, so omit the unit and give the number.

Worked cases, IC50 given:
MOLECULE	NUMERIC_READOUT
O=C(NCc1ccc(-n2[se]c3ccccc3c2=O)cc1)c1ccccc1Nc1cccc(C(F)(F)F)c1	7.5
COc1ccc2cc(C(C)C(=O)NCCn3[se]c4ccccc4c3=O)ccc2c1 (centres undefined)	8.8
COc1ccc2c(c1)c(CC(=O)NCc1ccc(-n3[se]c4ccccc4c3=O)cc1)c(C)n2C(=O)c1ccc(Cl)cc1	14.3

Problem: What measured IC50 is associated with Cc1cccc(Nc2ccccc2C(=O)NCc2ccc(-n3[se]c4ccccc4c3=O)cc2)c1C on HeLa?
Result: 3.8

Problem: Query the reported IC50 for HeLa; item: CC(=O)Oc1ccccc1C(=O)NCCn1[se]c2ccccc2c1=O
Result: 12.7

====

# Test system: DNA
# ASSAY_OVERVIEW: Induction of bleomycin-dependent DNA (unknown origin) damage assessed as absorbance at 0.1 mg/ml measured after 1 hr; note: unit not given here
# Format: nucleic-acid assay
Would you mind labelling by Activity? At or over 90 is true, under is false.

Problem: Determine whether measured Activity meets or exceeds 90 for COc1ccc2cc(C(C)C(=O)NCc3ccc(-n4[se]c5ccccc5c4=O)cc3)ccc2c1 (stereo unspecified)
Result: false

Problem: // inclusive: Activity at least 90? input: Cc1cccc(Nc2ccccc2C(=O)NCc2ccc(-n3[se]c4ccccc4c3=O)cc2)c1C
Result: false

Problem: I'd appreciate it if you could say whether Cc1cccc(Nc2ccccc2C(=O)NCCn2[se]c3ccccc3c2=O)c1C has Activity at least equal to 90.
Result: false

Problem: Answer whether Activity of COc1ccc2cc(C(C)C(=O)NCCn3[se]c4ccccc4c3=O)ccc2c1 (stereo unspecified) is greater than or equal to 90.
Result: true

Problem: Answer whether Activity of CC(C(=O)NCc1ccc(-n2[se]c3ccccc3c2=O)cc1)c1ccc(-c2ccccc2)c(F)c1 (stereo unspecified) is greater than or equal to 90.
Result: false
